Assay: Pharmacokinetics in MV4–11 xenografted nude mice (plasma and tumor)
Assay type: in vivo
Details: nude, mouse; plasma; single oral 6 mg/kg; read-out: Time of maximal plasma concentration
ATTRIBUTE MEASURED: Tmax (h)
Write the answer as a number in h, unit excluded.

QUERY: Output measured Tmax for this item: CCc1nc(C(N)=O)c(Nc2ccc(N3CCC(N4CCN(C)CC4)CC3)c(OC)c2)nc1NC1CCOCC1
RESULT: 2

====

Assay: Pharmacokinetics in MV4–11 xenografted nude mice (plasma and tumor)
Format: in vivo
Details: nude, mouse; plasma; single oral 10 mg/kg; read-out: AUCt, plasma concentration
ATTRIBUTE MEASURED: AUC(0-t) (ng·h/mL)
Write the answer as a number in ng·h/mL, unit excluded.

QUERY: Output measured AUC(0-t) for this item: CCc1nc(C(N)=O)c(Nc2ccc(N3CCC(N4CCN(C)CC4)CC3)c(OC)c2)nc1NC1CCOCC1
RESULT: 493
